# Test system: HCT116 WT cells
# Assay: HCT116 proliferation assay, WT cells (CellTiter-Glo, 6 days)
# Format: cell-based
# Settings: Homo sapiens, HCT-116, 144 h, read-out: Prolif_HCT116-WT IC50
Listed next: entries and their corresponding IC50.

Cc1cc2cc(C(=O)N(Cc3ccc(C(F)(F)F)cn3)C[C@H]3CC[C@H](O)CC3)ccc2nc1N [Example 676] : > 1000 nM

Value of measured IC50 for the entry Cc1cc2cc(C(=O)N(Cc3ccc(C(F)(F)F)cn3)Cc3csnn3)ccc2nc1N [Example 564] : > 1000 nM

Data point: Cc1cc2cc(C(=O)N(Cc3ccc(C(F)(F)F)cn3)CC(C)C)ncc2nc1N [Example 313] ; IC50 = > 10000 nM

====

# Test system: HCT116 MTAP null cells
# Assay: HCT116 proliferation assay, MTAP null cells (CellTiter-Glo, 6 days)
# Format: cell-based
# Settings: HCT116-MTAP null, 144 h, read-out: Protif_ HCT116-MTAP null IC50
The entries below come with measured pIC50 values attached.
Keep in mind that pIC50 stands for -log10 of concentration in molar terms.

COc1ccc(CN(C(=O)c2ccc3nc(N)c(C)cc3c2)[C@H](C)c2ncccn2)cn1 (single isomer, unassigned) : 6.49
Cc1csc(CN(Cc2ccc(C(F)(F)F)cn2)C(=O)c2ccc3nc(N)c(C)cc3c2)n1 : 6.81
Cc1cc2cc(C(=O)N(Cc3cc[nH]c3)Cc3ccc(C(F)(F)F)cn3)ccc2nc1N : 6.85
Cc1cc2cc(C(=O)N(Cc3ccc(Cl)c(C)n3)[C@H](C)c3ncccn3)ccc2nc1N (single isomer, unassigned) : 7.47
Cc1cc2cc(C(=O)N(Cc3ccc(C#N)cn3)[C@H](C)c3ncccn3)c(Cl)cc2nc1N : 6.43
Cc1cc2cc(C(=O)N(Cc3ccc(C(F)(F)F)cn3)[C@@H]3COCc4ncccc43)ccc2nc1N (single isomer, unassigned) : 7.21
Cc1cc2cc(C(=O)N(Cc3ccc4cn[nH]c4c3)Cc3ccc(C(F)(F)F)cn3)ccc2nc1N : 6.89
CC(C)CN(Cc1ccc(C(F)(F)F)cn1)C(=O)c1ccc2nc(N)c(Br)cc2c1 : 6.02

Just so you know, measured pIC50 for Cc1cc2cc(C(=O)N(Cc3cc(Br)ccn3)CC(C)C)ccc2nc1N came out at 6.17

The value of pIC50 measured for the molecule Nc1nc2ncc(C(=O)N(Cc3ccc(C(F)(F)F)cn3)Cc3ncccc3F)cc2cc1Br turned out to be 6.54

The measured pIC50 associated with Cc1cc2cc(C(=O)N(Cc3ccc(C(F)(F)F)cn3)[C@H](C)c3ncc(F)cn3)ccc2nc1N (single isomer, unassigned) reads 7.24

# pIC50 of Cc1cc2cc(C(=O)N(Cc3ccc(C(F)(F)F)cn3)CC(O)C(F)(F)F)ccc2nc1N (stereo not drawn) = 6.39

response.value for Cc1cc2cc(C(=O)N(Cc3ccc(C(F)F)cn3)CC(C)C)ccc2nc1N (field: pIC50) = 6.07

C[C@H](c1ncccn1)N(Cc1ccc(OC(F)F)nn1)C(=O)c1ccc2nc(N)c(Br)cc2c1 has a reported pIC50 of 6.86

Quick note, pIC50 for Cc1cc2cc(C(=O)N(Cc3ccc(C(F)F)cn3)[C@H](C)c3ncccn3)cnc2nc1N landed at 6.16

Sourced from patent US20230159510A1
